Tested on: AlDH
Assay: Initial screen: elevation of blood acetaldehyde (AcH) after ethanol in rats, prodrug 1.0 mmol/kg ip
Type: in vivo
Details: rat, ethanol 2 g/kg ip at 15 hours, sacrifice 16 hours post-drug
Property name: elevation of blood AcH over controls at 16 hours (fold)
Answers are plain numbers, in fold.

- Compound: "CCCCCCCCCCCCCCCC(=O)NC#N [Compound 6, Palmitoylcyanamide]"
  Test value: 100

Now turn to the next compound.
The recorded elevation of blood AcH over controls at 16 hours with AlDH for N#CNC(=O)c1ccccc1 [Compound 2, Benzoylcyanamide] was 10

====

Tested on: AlDH
Assay: Initial screen: elevation of blood acetaldehyde (AcH) after ethanol in rats, prodrug 1.0 mmol/kg ip
Format: in vivo
Settings: rat, 16 hours post-drug
Property name: duration of action / blood AcH at 16 hours (in words)

- Molecule: "CC(C)(C)C(=O)NC#N [Compound 3, Pivaloylcyanamide]"
  Target entity: "AlDH"
  Test value: "short acting"
- Molecule: "N#CNC(=O)C12CC3CC(CC(C3)C1)C2.N#CNC(=O)C12CC3CC(CC(C3)C1)C2"
  Target entity: "AlDH"
  Test value: "short acting"
